test: Metabolic stability in Sprague-Dawley rat whole blood at 400 uCi after 1 hr; assay type: ADME, tissue-based; settings: read-out: Stability

{"COMPOUND": "Cc1cc(N)nc(CC(C)[18F])c1 (stereo unspecified)", "UNIT_LABEL": "%", "remaining at 1 h, 400 uCi": 80}

* * *

Each record here notes measured pIC50.
target: Nitric oxide synthase, inducible (Homo sapiens, UniProt P35228); test: Inhibition of human recombinant iNOS using 1 mM […] and 2 uM L-arginine after 30 mins
Sequence (P35228 whole entry): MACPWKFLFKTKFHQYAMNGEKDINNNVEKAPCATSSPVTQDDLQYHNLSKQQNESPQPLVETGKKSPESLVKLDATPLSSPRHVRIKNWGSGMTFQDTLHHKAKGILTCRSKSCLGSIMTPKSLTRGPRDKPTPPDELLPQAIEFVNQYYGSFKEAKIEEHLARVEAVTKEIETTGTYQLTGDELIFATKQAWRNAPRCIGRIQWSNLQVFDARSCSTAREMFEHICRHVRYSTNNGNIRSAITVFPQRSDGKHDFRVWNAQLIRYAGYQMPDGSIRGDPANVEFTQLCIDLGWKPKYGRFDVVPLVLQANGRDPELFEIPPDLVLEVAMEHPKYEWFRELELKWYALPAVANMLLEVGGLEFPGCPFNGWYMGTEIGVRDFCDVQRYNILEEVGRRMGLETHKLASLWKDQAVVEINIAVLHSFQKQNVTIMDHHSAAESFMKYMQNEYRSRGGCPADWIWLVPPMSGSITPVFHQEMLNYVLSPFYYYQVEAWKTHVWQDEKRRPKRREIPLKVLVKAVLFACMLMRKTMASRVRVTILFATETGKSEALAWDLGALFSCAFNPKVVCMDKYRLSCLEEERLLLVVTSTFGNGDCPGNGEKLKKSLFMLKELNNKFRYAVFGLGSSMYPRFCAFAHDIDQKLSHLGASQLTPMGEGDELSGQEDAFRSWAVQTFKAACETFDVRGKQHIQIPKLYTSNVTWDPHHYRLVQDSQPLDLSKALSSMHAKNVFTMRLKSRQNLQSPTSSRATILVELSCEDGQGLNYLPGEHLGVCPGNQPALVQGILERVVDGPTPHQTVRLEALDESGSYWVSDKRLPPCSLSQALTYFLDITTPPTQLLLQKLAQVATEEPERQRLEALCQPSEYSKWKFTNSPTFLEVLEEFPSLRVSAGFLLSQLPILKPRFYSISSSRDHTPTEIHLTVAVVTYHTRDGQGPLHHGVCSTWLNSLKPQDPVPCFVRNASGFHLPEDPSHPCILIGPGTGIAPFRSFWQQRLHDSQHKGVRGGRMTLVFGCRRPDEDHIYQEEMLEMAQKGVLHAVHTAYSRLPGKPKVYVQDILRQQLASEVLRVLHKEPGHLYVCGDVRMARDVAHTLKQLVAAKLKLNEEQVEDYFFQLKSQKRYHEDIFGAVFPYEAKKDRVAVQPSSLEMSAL
pIC50: −log10 of the molar value.

{"COMPOUND": "Cc1cc(N)nc(CC(C)F)c1 (stereo not given)", "MODIFIER": "=", "pIC50": 6.66}
{"COMPOUND": "CSCCC(C)Cc1cc(C)cc(N)n1 (stereo not given)", "MODIFIER": "<", "pIC50": 5.30}
{"COMPOUND": "COC(C)Cc1cc(C)cc(N)n1 (stereo not given)", "MODIFIER": "<", "pIC50": 5.30}
{"COMPOUND": "C/C=C/c1cc(C)cc(N)n1", "MODIFIER": "=", "pIC50": 6.55}
{"COMPOUND": "Cc1cc(N)nc(CCCCF)c1", "MODIFIER": "=", "pIC50": 6.77}
{"COMPOUND": "Cc1cc(N)nc(CCCF)c1", "MODIFIER": "=", "pIC50": 7.24}
{"COMPOUND": "Cc1cc(N)nc(CC(C)OCCF)c1 (stereo not given)", "MODIFIER": "<", "pIC50": 5.30}
{"COMPOUND": "Cc1cc(N)nc(CC(C)O)c1 (stereo not given)", "MODIFIER": "=", "pIC50": 5.75}
{"COMPOUND": "Cc1cc(N)nc(CC(C)CCF)c1 (stereo not given)", "MODIFIER": "=", "pIC50": 6.14}
{"COMPOUND": "COCCC(C)Cc1cc(C)cc(N)n1 (stereo not given)", "MODIFIER": "<", "pIC50": 5.30}
